Tested on: TK-10 renal
Assay Text: NCI tumour cell line growth inhibition, 48 h
Measured Endpoint: GI50

>>> reading("O=S(=O)(CCOCc1ccc(-c2ccc3ncnc(Nc4ccc(OCc5cccc(F)c5)c(Cl)c4)c3c2)o1)c1ccccc1")
"1.17 µM"
>>> reading("CN(C)Cc1c[nH]c2c(NCCN)c3c(c(NCCN)c12)C(=O)c1ccccc1C3=O")
"3.25 µM"
>>> reading("CCOC1Oc2ccccc2-c2oc(=O)c(Sc3ccc(C)cc3)cc21 (stereo not given)")
"30.8 µM"
>>> reading("O=C(c1ccc2ccccc2c1)c1c(C(F)(F)F)n([O-])c2ccc(Cl)cc2[n+]1=O")
"1.81 µM"
>>> reading("CCSc1nc(N)c2cn[nH]c2n1")
"7.54 µM"

----------
Test system: OVCAR-5 ovarian
Assay Text: NCI tumour cell line growth inhibition, 48 h
Measured Endpoint: TGI

>>> reading("Cc1ccccc1C(O)(c1nccn1C)c1nccn1C")
"> 100 µM"
>>> reading("COc1ccc(CC(C)C(C)Cc2ccc(OC)c(OC)c2)cc1OC (stereo unspecified)")
"> 1400 µM"
>>> reading("CC1(C)N=C(C(N)=O)c2ncn(CCCO)c2N1")
"> 100 µM"
>>> reading("COc1ccc2cc(-c3ccc(-c4ccc(C(=N)N)s4)s3)ccc2c1")
"4.18 µM"
>>> reading("COc1ccc(C(OCC2OC(n3cc(C)c(=O)[nH]c3=O)CC2n2cc(Cn3cc(F)c(=O)[nH]c3=O)nn2)(c2ccccc2)c2ccccc2)cc1 (stereo unspecified)")
"35.5 µM"
>>> reading("CC(C)/C(Cl)=N\\OC(=O)Nc1ccc(C#N)cc1")
"28.4 µM"
>>> reading("CSc1cc(Cl)c(C)cc1S(=O)(=O)NC(=O)NNc1ccc(Cl)cc1")
"> 100 µM"
>>> reading("COc1c(Br)cc(Br)c(OC)c1-c1[nH]c(Br)c(Br)c1Br")
"29 µM"
>>> reading("c1ccc2nc3c(cc4ccccn43)nc2c1")
"> 100 µM"
>>> reading("Cc1c(S(=O)(=O)/N=C(\\N)Nc2ccc(Cl)cc2)sc2ccc(Cl)cc12")
"38.1 µM"
>>> reading("O=C(c1ccc2ccccc2c1)c1c(C(F)(F)F)n([O-])c2ccc(Cl)cc2[n+]1=O")
"3.58 µM"
>>> reading("CCN(CC)CCOc1ccc(N2C(=O)c3cc(OC)c(OC)cc3C2=O)cc1")
"> 100 µM"
>>> reading("C[C@H](Cn1ncnn1)Nc1ncc2cc(Oc3ccc(F)cc3F)c(=O)n(C)c2n1")
"> 25 µM"
>>> reading("CCN(C(=S)N[C@@H](Cc1ccccc1)C(=O)N[C@@H](CC(C)C)C(=O)OC)c1ccccc1")
"> 100 µM"
>>> reading("COC(=O)c1c2c(cc3c1CC1(C3)Cc3cc4c(c(C(=O)OC)c3C1)CCCC4)CCCC2")
"> 100 µM"
>>> reading("Cn1c(/C(C#N)=C/c2ccc3ccccc3c2)cc2ccccc21")
"> 100 µM"
>>> reading("O=P(c1ccccc1)(c1ccccc1)N1O[C@@H](c2ccccc2)C=C[C@H]1c1ccccc1")
"32.1 µM"
>>> reading("O=C(N=Nc1cc(Cl)ccc1Cl)NNc1cc(Cl)ccc1Cl")
"39.8 µM"
>>> reading("C#CCC(N)(CO)C(=O)O (stereo unspecified)")
"> 100 µM"
>>> reading("Cn1c2ccccc2c2c(=O)c3ccccc3[nH]c21")
"> 100 µM"
>>> reading("COc1ccccc1/C=C/C(=O)/C=C/c1ccccc1O")
"4.39 µM"
>>> reading("CS(=O)(=O)OCCn1c(=O)n(CCOS(C)(=O)=O)c(=O)n(CCOS(C)(=O)=O)c1=O")
"> 100 µM"
>>> reading("Cn1cc(-c2csc(-c3cn(C)c4ccccc34)n2)c2cnccc21")
"3.25 µM"
>>> reading("OC(CN1CC1)C(O)CN1CC1 (stereo unspecified)")
"> 50 µg/mL"
>>> reading("CCOC(=O)c1c(-c2ccc(OC)cc2)c(C#N)c(=S)n(C2OC(COC(C)=O)C(OC(C)=O)C(OC(C)=O)C2OC(C)=O)c1C (stereo unspecified)")
"> 100 µM"
>>> reading("CC(C)c1ccccc1NC(=O)/C(Cl)=C1/Sc2ccccc2NC1=O")
"> 100 µM"
